- TEST_DESCRIPTION: Agonist activity at dog BRS3
- Format: functional, Canis lupus familiaris
pEC50: −log10 of the molar value.
PROPERTY_NAME: pEC50

[[record]]
chemical_structure = "Cc1ccc2c(c1C)N(S(=O)(=O)c1ccc(C(C)(C)C)cc1)Cc1ccc(C(F)(F)F)nc1N2"
value = 7.44


###

- TEST_DESCRIPTION: Half life in Sprague-Dawley rat at 1 mg/kg, iv
- Type: ADME, organism-based
- Design: dose 1 mg/kg, route intravenous
- SETTINGS: in vivo
PROPERTY_NAME: half-life (h)

[[record]]
chemical_structure = "Cc1cccc2c1N(S(=O)(=O)c1ccc(C(C)(C)C)cc1)Cc1ccc(C(F)(F)F)nc1N2"
value_units = "h"
value = 1.6

[[record]]
chemical_structure = "Cc1ccc2c(c1C)N(S(=O)(=O)c1ccc(C(C)(C)C)cc1)Cc1ccc(C(F)(F)F)nc1N2"
value_units = "h"
value = 1.6

[[record]]
chemical_structure = "CC(C)(C)c1ccc(S(=O)(=O)N2Cc3ccc(C(F)(F)F)nc3Nc3cccc(Cl)c32)cc1"
value_units = "h"
value = 1.4

[[record]]
chemical_structure = "Cc1ccc2c(c1C)N(S(=O)(=O)c1ccc(C(C)(C)C)cc1)Cc1cccnc1N2"
value_units = "h"
value = 1.6

[[record]]
chemical_structure = "Cc1ccc2c(c1)N(S(=O)(=O)c1ccc(C(C)(C)C)cc1)Cc1ccc(C(F)(F)F)nc1N2"
value_units = "h"
value = 2.2

[[record]]
chemical_structure = "CC(C)(C)c1ccc(S(=O)(=O)N2Cc3ccc(C(F)(F)F)nc3Nc3ccc(C(C)(C)O)c(F)c32)cc1"
value_units = "h"
value = 3

[[record]]
chemical_structure = "Cc1ccc2c(c1C)N(S(=O)(=O)c1ccc(C(C)C)cc1)Cc1ccc(C(F)(F)F)nc1N2"
value_units = "h"
value = 3.5


###

- ASSAY_TARGET: Bombesin receptor subtype-3 (Mus musculus)
- TEST_DESCRIPTION: Agonist activity at mouse BRS3 expressed in HEK293 cells expressing aequorin measured for 30 secs by bioluminescence assay
pEC50: −log10 of the molar value.
Decision: pEC50 compared against 7; not below it gives yes (1), below it gives no (0).

[[record]]
chemical_structure = "Cc1ccc2c(c1C)Nc1nc(C(F)(F)F)ccc1CN2S(=O)(=O)c1ccc(C(C)(C)C)cc1"
class_name = "no (0)"

[[record]]
chemical_structure = "Cc1ccc2c(c1C)N(S(=O)(=O)c1ccc(C(C)(C)C)cc1)Cc1ccc(C#N)nc1N2"
class_name = "yes (1)"

[[record]]
chemical_structure = "Cc1ccc2c(c1C)N(S(=O)(=O)c1ccc(C(C)(C)C)cc1)Cc1cccnc1N2"
class_name = "no (0)"

[[record]]
chemical_structure = "CC(C)(C)c1ccc(S(=O)(=O)N2Cc3ccc(C(F)(F)F)nc3Nc3cccc(O)c32)cc1"
class_name = "no (0)"


###

- ASSAY_TARGET: Bombesin receptor subtype-3 (Mus musculus) (UniProt O54798)
- Sequence (whole entry): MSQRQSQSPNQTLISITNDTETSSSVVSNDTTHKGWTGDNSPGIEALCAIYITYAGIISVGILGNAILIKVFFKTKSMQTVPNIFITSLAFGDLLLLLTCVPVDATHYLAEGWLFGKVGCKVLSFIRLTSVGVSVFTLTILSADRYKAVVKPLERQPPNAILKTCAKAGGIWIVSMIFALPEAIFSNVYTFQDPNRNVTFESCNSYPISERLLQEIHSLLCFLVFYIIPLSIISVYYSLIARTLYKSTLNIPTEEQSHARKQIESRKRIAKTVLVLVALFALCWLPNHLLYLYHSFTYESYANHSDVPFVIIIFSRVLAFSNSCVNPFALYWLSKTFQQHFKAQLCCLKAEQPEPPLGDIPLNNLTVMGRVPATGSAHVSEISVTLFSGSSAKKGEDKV
- TEST_DESCRIPTION: Agonist activity at mouse BRS3 expressed in HEK293 cells expressing aequorin measured for 30 secs by bioluminescence assay relative to [125I]-[D-Tyr6,beta-Ala11,Phe13,Nle14]-Bombesin(6-14)
- Assay type: functional, cell-based
Listed here are compounds together with their documented max activation.
PROPERTY_NAME: max activation (%)

[[record]]
chemical_structure = "Cc1ccc2c(c1C)N(S(=O)(=O)c1ccc(S(C)(=O)=O)cc1)Cc1ccc(C(F)(F)F)nc1N2"
value_units = "%"
value = 46

[[record]]
chemical_structure = "Cc1ccc2c(c1)N(S(=O)(=O)c1ccc(C(C)(C)C)cc1)Cc1ccc(C(F)(F)F)nc1N2"
value_units = "%"
value = 82

[[record]]
chemical_structure = "Cc1ccc2c(c1C)N(S(=O)(=O)c1csc(C(F)(F)F)c1)Cc1ccc(C(F)(F)F)nc1N2"
value_units = "%"
value = 103

[[record]]
chemical_structure = "Cc1ccc2c(c1C)N(S(=O)(=O)c1ccc(C(C)(C)C)cc1)Cc1cc(F)c(Cl)nc1N2"
value_units = "%"
value = 82

[[record]]
chemical_structure = "Cc1ccc2c(c1C)N(S(=O)(=O)c1ccc(C(C)C)cc1)Cc1ccc(C(F)(F)F)nc1N2"
value_units = "%"
value = 110

[[record]]
chemical_structure = "Cc1ccc2c(c1C)N(S(=O)(=O)c1ccc(C(C)(C)C)cc1)Cc1ccc(C(F)(F)F)nc1N2"
value_units = "%"
value = 98

[[record]]
chemical_structure = "Cc1ccc2c(c1C)N(S(=O)(=O)c1ccc(C(C)(C)C)cc1)Cc1ccc(C#N)nc1N2"
value_units = "%"
value = 103

[[record]]
chemical_structure = "CC(C)(C)c1ccc(S(=O)(=O)N2Cc3ccc(C(F)(F)F)nc3Nc3ccc(C(C)(C)O)c(F)c32)cc1"
value_units = "%"
value = 97

[[record]]
chemical_structure = "Cc1ccc2c(c1C)N(S(=O)(=O)c1ccc(C(C)(C)C#N)cc1)Cc1ccc(C(F)(F)F)nc1N2"
value_units = "%"
value = 83

[[record]]
chemical_structure = "Cc1ccc2c(c1C)N(S(=O)(=O)c1ccc(OC(F)(F)F)cc1)Cc1ccc(C(F)(F)F)nc1N2"
value_units = "%"
value = 103

[[record]]
chemical_structure = "Cc1ccc2c(c1C)N(S(=O)(=O)c1ccc(C(C)(C)C)cc1)Cc1cccnc1N2"
value_units = "%"
value = 101

[[record]]
chemical_structure = "CC(C)(C)c1ccc(S(=O)(=O)N2Cc3ccc(C(F)(F)F)nc3Nc3cccc(O)c32)cc1"
value_units = "%"
value = 115

[[record]]
chemical_structure = "CC(C)(C)c1ccc(S(=O)(=O)N2Cc3ccc(C(F)(F)F)nc3Nc3ccc4ncccc4c32)cc1"
value_units = "%"
value = 107

[[record]]
chemical_structure = "CC(C)(C)c1ccc(S(=O)(=O)N2Cc3ccc(C(F)(F)F)nc3Nc3cccc(Cl)c32)cc1"
value_units = "%"
value = 100

[[record]]
chemical_structure = "Cc1ccc2c(n1)N(S(=O)(=O)c1ccc(C(C)(C)C)cc1)Cc1ccc(C(F)(F)F)nc1N2"
value_units = "%"
value = 112

[[record]]
chemical_structure = "Cc1ccc2c(c1C)N(S(=O)(=O)c1ccc(C(C)(C)F)cc1)Cc1ccc(C(F)(F)F)nc1N2"
value_units = "%"
value = 108

[[record]]
chemical_structure = "CC(C)(C)c1ccc(S(=O)(=O)N2Cc3ccc(C(F)(F)F)nc3Nc3ccccc32)cc1"
value_units = "%"
value = 98

[[record]]
chemical_structure = "Cc1ccc2c(c1C)N(S(=O)(=O)c1ccc(C(F)(F)F)s1)Cc1ccc(C(F)(F)F)nc1N2"
value_units = "%"
value = 90


###

- ASSAY_TARGET: UniProt:Q12809
- Sequence (Q12809 whole entry): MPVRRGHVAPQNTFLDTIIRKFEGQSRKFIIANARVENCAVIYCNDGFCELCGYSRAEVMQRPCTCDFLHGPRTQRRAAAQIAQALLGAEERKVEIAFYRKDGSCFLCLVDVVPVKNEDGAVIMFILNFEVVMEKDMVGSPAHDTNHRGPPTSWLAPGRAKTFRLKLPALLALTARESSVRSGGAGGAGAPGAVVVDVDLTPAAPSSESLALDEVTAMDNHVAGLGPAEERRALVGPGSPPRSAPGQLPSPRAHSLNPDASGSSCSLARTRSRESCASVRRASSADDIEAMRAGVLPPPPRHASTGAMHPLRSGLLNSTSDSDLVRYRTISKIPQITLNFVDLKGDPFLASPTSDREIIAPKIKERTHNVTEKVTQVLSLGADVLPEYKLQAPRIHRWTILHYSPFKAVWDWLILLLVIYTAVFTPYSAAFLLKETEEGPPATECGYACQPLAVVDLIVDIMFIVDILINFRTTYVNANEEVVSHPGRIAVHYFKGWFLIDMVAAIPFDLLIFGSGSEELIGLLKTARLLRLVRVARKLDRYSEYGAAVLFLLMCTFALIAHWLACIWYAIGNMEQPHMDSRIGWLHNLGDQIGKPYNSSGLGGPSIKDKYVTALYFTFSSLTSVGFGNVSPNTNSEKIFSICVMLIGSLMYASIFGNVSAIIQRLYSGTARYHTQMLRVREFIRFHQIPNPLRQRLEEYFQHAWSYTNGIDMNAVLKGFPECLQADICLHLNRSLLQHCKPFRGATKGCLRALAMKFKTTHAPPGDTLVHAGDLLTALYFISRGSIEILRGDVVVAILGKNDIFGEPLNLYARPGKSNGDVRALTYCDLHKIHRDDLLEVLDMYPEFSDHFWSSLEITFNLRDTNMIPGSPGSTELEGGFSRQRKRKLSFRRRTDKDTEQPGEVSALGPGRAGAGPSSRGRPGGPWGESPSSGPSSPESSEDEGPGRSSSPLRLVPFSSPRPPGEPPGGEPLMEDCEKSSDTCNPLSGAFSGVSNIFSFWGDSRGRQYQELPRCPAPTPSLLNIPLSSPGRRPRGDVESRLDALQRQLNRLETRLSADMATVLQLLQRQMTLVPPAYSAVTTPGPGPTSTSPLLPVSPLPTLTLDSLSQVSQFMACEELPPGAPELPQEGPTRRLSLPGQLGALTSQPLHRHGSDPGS
pIC50: −log10 of the molar value.
PROPERTY_NAME: pIC50

[[record]]
chemical_structure = "Cc1ccc2c(c1C)N(S(=O)(=O)c1ccc(C(C)(C)C)cc1)Cc1ccc(C(F)(F)F)nc1N2"
value = "< 5.00"


###

- TEST_DESCRIPTION: Oral bioavailability in Sprague-Dawley rat at 4 mg/kg
- Format: ADME, organism-based
- SETTINGS: in vivo
PROPERTY_NAME: bioavailability (%)

[[record]]
chemical_structure = "Cc1ccc2c(c1C)N(S(=O)(=O)c1ccc(C(C)(C)C)cc1)Cc1cccnc1N2"
property_name = "bioavailability"
value_units = "%"
value = 1

[[record]]
chemical_structure = "Cc1cccc2c1N(S(=O)(=O)c1ccc(C(C)(C)C)cc1)Cc1ccc(C(F)(F)F)nc1N2"
property_name = "bioavailability"
value_units = "%"
value = 14

[[record]]
chemical_structure = "Cc1ccc2c(c1C)N(S(=O)(=O)c1ccc(C(C)C)cc1)Cc1ccc(C(F)(F)F)nc1N2"
property_name = "bioavailability"
value_units = "%"
value = 10

[[record]]
chemical_structure = "Cc1ccc2c(c1C)N(S(=O)(=O)c1ccc(C(C)(C)C)cc1)Cc1ccc(C(F)(F)F)nc1N2"
property_name = "bioavailability"
value_units = "%"
value = 15

[[record]]
chemical_structure = "Cc1ccc2c(c1)N(S(=O)(=O)c1ccc(C(C)(C)C)cc1)Cc1ccc(C(F)(F)F)nc1N2"
property_name = "bioavailability"
value_units = "%"
value = 22

[[record]]
chemical_structure = "CC(C)(C)c1ccc(S(=O)(=O)N2Cc3ccc(C(F)(F)F)nc3Nc3ccc(C(C)(C)O)c(F)c32)cc1"
property_name = "bioavailability"
value_units = "%"
value = 13

[[record]]
chemical_structure = "CC(C)(C)c1ccc(S(=O)(=O)N2Cc3ccc(C(F)(F)F)nc3Nc3cccc(Cl)c32)cc1"
property_name = "bioavailability"
value_units = "%"
value = 34


Taken from ChEMBL document CHEMBL2177008.
